src = patent US12448383B2

Test: Stability in pH7 buffered solution
Assay type: physicochemical
Conditions: pH7 phosphate buffer, 40° C., Table N2
Listed next: entries and their corresponding pH 7 Stability 24 h % AN.
// units = % AN; emit number, no label

// recorded pH 7 Stability 24 h % AN for CCC(C)(C)OC(=O)OC[C@H]1O[C@@](C#N)(c2ccc3c(N)ncnn23)[C@H](OC(=O)OC(C)(C)CC)[C@@H]1OC(=O)OC(C)(C)CC : 0

---

Listed next: entries and their corresponding DM Caco2 A to B.
Test system: Caco-2 cells (clone C2BBe1)
Experiment: CACO-2 permeability
Type: in vitro ADME
Design: unit not given here
Conditions: apical to basolateral; donor pH 6.5, receiver pH 7.4
Respond using a number only.

Recorded DM Caco2 A to B, per entry:
N#C[C@@]1(c2ccc3c(N)ncnn23)O[C@H](COC(=O)OCC2CC(F)(F)C2)[C@@H](O)[C@H]1O [Compound 115]; 0.91
N#C[C@@]1(c2ccc3c(N)ncnn23)O[C@H](CO)[C@@H](O)[C@H]1O [Reference Compound A, reference compound]; 0.12
CC1(C)CC(COC(=O)OC[C@H]2O[C@@](C#N)(c3ccc4c(N)ncnn34)[C@H](O)[C@@H]2O)C1 [Compound 117]; 6.18
COC(=O)OC[C@H]1O[C@@](C#N)(c2ccc3c(N)ncnn23)[C@H](OC(C)=O)[C@@H]1OC(C)=O [Compound 128]; 3.35
N#CCC1(COC(=O)OC[C@H]2O[C@@](C#N)(c3ccc4c(N)ncnn34)[C@H](O)[C@@H]2O)CC1 [Compound 119]; 0.07

Then this compound:
// recorded DM Caco2 A to B for CC1=CCC(C(C)(C)OC(=O)OC[C@H]2O[C@@](C#N)(c3ccc4c(N)ncnn34)[C@H](O)[C@@H]2O)CC1 (stereo partly drawn) [Compound 155] : 3.06

---

Tested on: Caco-2 cells (clone C2BBe1)
Experiment: CACO-2 permeability
Assay type: in vitro ADME
Parameters: unit not given here
Details: basolateral to apical
measured_endpoint: DM Caco2 B to A
Respond using a number only.

// recorded DM Caco2 B to A for CC(C)(C)COC(=O)OC[C@H]1O[C@@](C#N)(c2ccc3c(N)ncnn23)[C@H](O)[C@@H]1O : 9.8

// recorded DM Caco2 B to A for CC(C)(OC(=O)OC[C@H]1O[C@@](C#N)(c2ccc3c(N)ncnn23)[C@H](O)[C@@H]1O)C(F)(F)F : 9.76

// recorded DM Caco2 B to A for CC1(COC(=O)OC[C@H]2O[C@@](C#N)(c3ccc4c(N)ncnn34)[C@H](O)[C@@H]2O)CCCC1 : 9.88

---

Listed next: entries and their corresponding DM Caco2 B to A.
Tested on: Caco-2 cells (clone C2BBe1)
Assay: CACO-2 permeability
Format: in vitro ADME
Design: unit not given here
Details: basolateral to apical

Recorded DM Caco2 B to A, per entry:
CC(C)C(C)(C)OC(=O)OC[C@H]1O[C@@](C#N)(c2ccc3c(N)ncnn23)[C@H](O)[C@@H]1O; 7.09
CC(C)OC(=O)[C@H](CCOC(=O)OC[C@H]1O[C@@](C#N)(c2ccc3c(N)ncnn23)[C@H](O)[C@@H]1O)N(C)C; 7.15

Then this molecule:
// recorded DM Caco2 B to A for N#C[C@@]1(c2ccc3c(N)ncnn23)O[C@H](COC(=O)OC2CCC(F)(F)CC2)[C@@H](O)[C@H]1O : 6.99

---

Test: Stability in pH7 buffered solution
Type: physicochemical
Settings: pH7 phosphate buffer, 40° C., Table N2
Listed next: entries and their corresponding pH 7 Stability 24 h % AN.
// units = % AN; emit number, no label

Recorded pH 7 Stability 24 h % AN, per entry:
CCOC(=O)C(C)(C)OC(=O)OC[C@H]1O[C@@](C#N)(c2ccc3c(N)ncnn23)[C@H](O)[C@@H]1O; 95
CCOC(=O)[C@H](C)OC(=O)OC[C@H]1O[C@@](C#N)(c2ccc3c(N)ncnn23)[C@H](O)[C@@H]1O; 85
CC(C)OC(=O)OC[C@H]1O[C@@](C#N)(c2ccc3c(N)ncnn23)[C@H](O)[C@@H]1O; 97
CC(C)OC(=O)Nc1ncnn2c([C@]3(C#N)O[C@H](COC(=O)OC(C)(C)C)[C@@H](O)[C@H]3O)ccc12; 0
CCC1O[C@H]2[C@@H](O1)[C@](C#N)(c1ccc3c(N)ncnn13)O[C@@H]2COC(=O)OC(C)C (stereo partly shown); 98

// recorded pH 7 Stability 24 h % AN for COCC(C)(C)OC(=O)OC[C@H]1O[C@@](C#N)(c2ccc3c(N)ncnn23)[C@H](O)[C@@H]1O : 95

// recorded pH 7 Stability 24 h % AN for CC(C)OC(=O)OC[C@H]1O[C@@](C#N)(c2ccc3c(N)ncnn23)[C@H](OC(=O)C(C)C)[C@@H]1OC(=O)C(C)C : 93

// recorded pH 7 Stability 24 h % AN for N#C[C@@]1(c2ccc3c(N)ncnn23)O[C@H](COC(=O)OC2CCCCCCC2)[C@@H](O)[C@H]1O : 97

// recorded pH 7 Stability 24 h % AN for CC12CCC(C1)C(C)(C)C2OC(=O)OC[C@H]1O[C@@](C#N)(c2ccc3c(N)ncnn23)[C@H](O)[C@@H]1O (mixture of isomers) : 99

// recorded pH 7 Stability 24 h % AN for CC(C)(C)OC(=O)OC[C@H]1O[C@@](C#N)(c2ccc3c(N)ncnn23)[C@H](O)[C@@H]1O : 8

// recorded pH 7 Stability 24 h % AN for N#C[C@@]1(c2ccc3c(N)ncnn23)O[C@H](COC(=O)OCc2ccccc2)[C@@H](O)[C@H]1O : 97

// recorded pH 7 Stability 24 h % AN for CC(C)(OC(=O)OC[C@H]1O[C@@](C#N)(c2ccc3c(N)ncnn23)[C@H](O)[C@@H]1O)c1ccncc1 : 94

// recorded pH 7 Stability 24 h % AN for CCCC(=O)Nc1ncnn2c([C@]3(C#N)O[C@H](COC(=O)OCC(C)C)[C@@H](O)[C@H]3O)ccc12 : 92
